Reference for the values: patent US9765074B2

molecular target: hROMK (hKir1.1) (Homo sapiens); assay: Thallium Flux Assay (ROMK channel functional thallium flux, FLIPR-Tetra); details: HEK293 cells stably expressing hROMK (hKir1.1); 30 min compound incubation
Sequence (P48048 whole entry): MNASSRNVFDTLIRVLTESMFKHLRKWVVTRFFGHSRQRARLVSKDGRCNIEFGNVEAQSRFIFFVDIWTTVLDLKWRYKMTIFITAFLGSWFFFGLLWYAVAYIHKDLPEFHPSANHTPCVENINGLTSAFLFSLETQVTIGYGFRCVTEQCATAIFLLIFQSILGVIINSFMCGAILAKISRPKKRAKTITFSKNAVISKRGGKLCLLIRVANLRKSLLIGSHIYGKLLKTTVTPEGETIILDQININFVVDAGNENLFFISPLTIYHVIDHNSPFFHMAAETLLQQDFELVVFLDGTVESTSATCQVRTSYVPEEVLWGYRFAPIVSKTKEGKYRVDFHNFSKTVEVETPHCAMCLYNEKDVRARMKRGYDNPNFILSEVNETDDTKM
pIC50: −log10 of the molar value.
Endpoint label: pIC50

Previously resolved entries follow.
[[record]]
molecule = "CC1=C(N2CCC3(CC4CCC(C3)N4CCc3ccc(-n4cnnn4)nn3)C2=O)COC1=O (centres unmarked) [Example 235]"
endpoint_label = "pIC50"
observed = 8.00

[[record]]
molecule = "CC1=C(N2CCC3(CCN(C[C@@H](O)c4cnc(-n5cnnn5)c(F)c4)CC3)C2=O)COC1=O [Example 27]"
endpoint_label = "pIC50"
observed = 7.70

[[record]]
molecule = "CC1CC2(CC3CCC(C2)N3C[C@@H](O)c2cnc(-n3cnnn3)cn2)C(=O)N1C1=CC(=O)OC1 (single isomer, unassigned) [Example 90]"
endpoint_label = "pIC50"
observed = 7.40


a = CC1=C(N2CCC3(CCN(C[C@H](O)c4cnc(-n5cnnn5)cc4C(F)F)CC3)C2=O)COC1=O (stereo in doubt) [Example 147]
b = C[C@@H]1CC2(CCN(C[C@@H](O)c3ccc(-n4cnnn4)nc3)CC2)C(=O)N1C1=CC(=O)OC1 [Example 84]
c = CC1=C(N2C(=O)C3(CCN(C[C@H](O)c4ccc(-n5cnnn5)nc4C)CC3)CC2C)COC1=O (mixture of isomers) [Example 56]
d = CC1=C(N2C(=O)C3(CCN(C[C@H](O)c4cnc(-n5cnnn5)nc4)CC3)CC2C)COC1=O (single isomer, unassigned) [Example 113]
Q. Exam item: list the entries in increasing order of pIC50. Thanks in advance for listing the labels in the requested order.
A. d, a, c, b

P = CC1=C(N2CCC3(CCN(C[C@H](F)c4ccc(-n5cnnn5)nn4)CC3)C2=O)COC1=O [Example 278]
Q = O=C1C=C(N2C(=O)C3(CCN(C[C@H](O)c4ccc(-n5cnnn5)cn4)CC3)CC2C2CC2)CO1 (mixture of isomers) [Example 223]
R = CCC1CC2(CCN(C[C@H](O)c3ccc(-n4cnnn4)nc3)CC2)C(=O)N1C1=CC(=O)OC1 (mixture of isomers) [Example 219]
S = CC1=C(N2CC(O)C3(CCN(C[C@H](O)c4ccc(-n5cnnn5)nc4)CC3)C2=O)COC1=O (single isomer, unassigned) [Example 111]
Q. Order the records so the highest pIC50 appears first and the lowest last. Thanks in advance for listing the labels in the requested order.
A. R, P, Q, S
(R: 8.00, P: 7.52, Q: 7.30, S: 7.05)
